For each record, write down the corresponding HLC % remaining (1 h incub.).
molecular target: aldehyde oxidases (human liver cytosol) (Homo sapiens, UniProt Q06278); construct: added to human liver cytosol (1 mg/mL protein content); from tissue; host or cells: human liver cytosol; format: in vitro ADME; details: human liver cytosol 1 mg/mL, 1 μM compound, 60 min incubation, pH 7.4, 37° C.
Sequence (Q06278 whole entry): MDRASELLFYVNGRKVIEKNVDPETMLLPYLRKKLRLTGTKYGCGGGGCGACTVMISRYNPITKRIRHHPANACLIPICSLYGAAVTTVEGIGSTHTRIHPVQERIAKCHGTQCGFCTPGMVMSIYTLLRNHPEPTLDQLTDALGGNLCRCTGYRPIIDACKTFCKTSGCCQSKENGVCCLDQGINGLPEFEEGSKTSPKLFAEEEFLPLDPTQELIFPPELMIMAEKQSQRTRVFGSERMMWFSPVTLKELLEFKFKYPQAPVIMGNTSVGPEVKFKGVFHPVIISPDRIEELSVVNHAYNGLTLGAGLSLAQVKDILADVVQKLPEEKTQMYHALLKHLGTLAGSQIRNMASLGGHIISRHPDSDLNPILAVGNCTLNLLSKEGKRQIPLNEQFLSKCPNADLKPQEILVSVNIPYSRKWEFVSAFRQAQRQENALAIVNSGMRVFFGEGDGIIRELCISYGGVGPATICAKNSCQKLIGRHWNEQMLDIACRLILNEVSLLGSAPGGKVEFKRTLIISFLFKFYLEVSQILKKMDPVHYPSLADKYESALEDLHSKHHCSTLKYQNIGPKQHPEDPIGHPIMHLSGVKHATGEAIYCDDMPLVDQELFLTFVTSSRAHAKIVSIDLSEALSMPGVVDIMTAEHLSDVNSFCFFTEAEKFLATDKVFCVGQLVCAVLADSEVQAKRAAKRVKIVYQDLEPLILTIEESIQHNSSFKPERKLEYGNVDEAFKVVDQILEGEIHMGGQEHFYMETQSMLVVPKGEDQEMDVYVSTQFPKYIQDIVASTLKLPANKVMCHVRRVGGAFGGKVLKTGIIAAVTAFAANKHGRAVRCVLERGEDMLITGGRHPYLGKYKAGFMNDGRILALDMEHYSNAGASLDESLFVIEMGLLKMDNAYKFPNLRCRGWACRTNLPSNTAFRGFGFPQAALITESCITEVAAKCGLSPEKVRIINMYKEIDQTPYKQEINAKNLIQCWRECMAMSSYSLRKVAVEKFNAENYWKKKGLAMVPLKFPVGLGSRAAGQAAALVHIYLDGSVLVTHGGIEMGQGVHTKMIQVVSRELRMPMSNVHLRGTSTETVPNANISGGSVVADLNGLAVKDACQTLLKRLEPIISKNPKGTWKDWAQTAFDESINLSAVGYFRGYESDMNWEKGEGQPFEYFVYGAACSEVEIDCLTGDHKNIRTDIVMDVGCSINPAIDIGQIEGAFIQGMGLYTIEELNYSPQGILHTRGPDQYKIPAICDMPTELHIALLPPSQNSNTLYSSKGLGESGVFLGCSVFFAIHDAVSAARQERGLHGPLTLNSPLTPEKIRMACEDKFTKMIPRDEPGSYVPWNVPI
# do not omit the unit; it follows the number

Solved cases (3 shown):
NC(=O)c1cc(-c2ccnc3[nH]ccc23)[nH]c1-c1ccc(Cl)cc1F [comp 2]    98%
NC(=O)c1cc(-c2csc(N)n2)[nH]c1-c1ccc(Cl)cc1Cl [compound 45]    98%
Cc1ccc(-c2[nH]c(-c3c[nH]nc3C)cc2C(N)=O)c(F)c1 [compound 52]    100%

Provide the reported HLC % remaining (1 h incub.) of each entry below, same order.
1. Cc1cccc(-c2[nH]c(-c3ccnc4[nH]ccc34)cc2C(N)=O)c1F [comp 14]
2. NC(=O)c1cc(-c2ccnc3[nH]ccc23)[nH]c1-c1cccc(F)c1F [comp 6]
3. Cc1cc(C(F)(F)F)ccc1-c1[nH]c(-c2ccnc3[nH]ccc23)cc1C(N)=O [comp 11]

["100%", "100%", "100%"]

====

biological target: aldehyde oxidases (human liver cytosol) (Homo sapiens, UniProt Q06278); construct: added to human liver cytosol (1 mg/mL protein content); from tissue; host or cells: human liver cytosol; format: in vitro ADME; details: human liver cytosol 1 mg/mL, 1 μM compound, 60 min incubation, pH 7.4, 37° C.
experimental_endpoint: HLC % remaining (1 h incub.)

Solved cases (5 shown):
Cc1ccc(-c2[nH]c(-c3cn[nH]c3)cc2C(N)=O)c(F)c1 [compound 49]    100%
Cc1ccc(-c2[nH]c(-c3ccnc4[nH]ccc34)cc2C(N)=O)c(C(F)(F)F)c1 [comp 8]    85%
Cc1ccc(-c2[nH]c(-c3ccnc4[nH]ccc34)cc2C(N)=O)c(Cl)c1 [comp 9]    100%
COc1cccc(-c2[nH]c(-c3ccnc4[nH]ccc34)cc2C(N)=O)c1F [comp 12]    97%
Cc1ccc(-c2[nH]c(-c3ccnc4[nH]ccc34)cc2C(N)=O)c(F)c1 [compound 53]    100%

Provide the reported HLC % remaining (1 h incub.) of each entry below, same order.
1. NC(=O)c1cc(-c2ccnc3[nH]ccc23)[nH]c1-c1ccc(C(F)(F)F)cc1Cl [comp 5]
2. NC(=O)c1cc(-c2cc(N)ncn2)[nH]c1-c1ccc(Cl)cc1Cl [compound 42]
3. NC(=O)c1cc(-c2ccnc3[nH]ccc23)[nH]c1-c1ccc(Cl)cc1Cl [compound 46]
4. Cc1ccc(-c2[nH]c(-c3ccnc4[nH]ccc34)cc2C(N)=O)c(F)c1F [comp 10]
5. NC(=O)c1cc(-c2ccnc3[nH]ccc23)[nH]c1-c1cccc(F)c1Cl [comp 13]

1: 100%; 2: 100%; 3: 100%; 4: 95%; 5: 100%

Provide the reported HLC % remaining (1 h incub.) of each entry below, same order.
1. NC(=O)c1cc(-c2cn[nH]c2)[nH]c1-c1ccc(Cl)cc1Cl [compound 43]
2. NC(=O)c1cc(-c2ccnc3[nH]ccc23)[nH]c1-c1ccc(F)cc1F [comp 4]
3. NC(=O)c1cc(-c2ccnc3[nH]ccc23)[nH]c1-c1ccc(F)cc1Cl [comp 3]
4. Cc1c(-c2[nH]c(-c3ccnc4[nH]ccc34)cc2C(N)=O)cccc1C(F)(F)F [comp 15]
5. Cc1n[nH]cc1-c1cc(C(N)=O)c(-c2ccc(Cl)cc2Cl)[nH]1 [compound 44]
6. NC(=O)c1cc(-c2c[nH]nc2C(F)(F)F)[nH]c1-c1ccc(Cl)cc1Cl [compound 48]
7. NC(=O)c1cc(-c2ccnc3[nH]ccc23)[nH]c1-c1cccc(Cl)c1F [comp 1]
8. NC(=O)c1cc(-c2ccnc3[nH]ccc23)[nH]c1-c1cccc(Cl)c1Cl [comp 7]

["100%", "100%", "97%", "100%", "100%", "100%", "100%", "95%"]

====

For each record, write down the corresponding IC50.
molecular target: UniProt O00311
Numbers only, in nM.

Solved cases (4 shown):
Cc1n[nH]cc1-c1cc(C(N)=O)c(-c2ccc(Cl)cc2Cl)[nH]1    48
NC(=O)c1cc(-c2ccnc3[nH]ccc23)[nH]c1-c1cccc(F)c1    14
NC(=O)c1cc(-c2ccnc3[nH]ccc23)n(CCO)c1-c1ccc(Cl)cc1Cl    418
NC(=O)c1cc(-c2ccnc3[nH]ccc23)[nH]c1-c1csc2ccccc12    7

Need IC50, item NC(=O)c1cc(-c2ccnc3[nH]ccc23)[nH]c1-c1cccc(Cl)c1Cl
1

====

target: Cdc7 (Homo sapiens, UniProt O00311)
Sequence (O00311 whole entry): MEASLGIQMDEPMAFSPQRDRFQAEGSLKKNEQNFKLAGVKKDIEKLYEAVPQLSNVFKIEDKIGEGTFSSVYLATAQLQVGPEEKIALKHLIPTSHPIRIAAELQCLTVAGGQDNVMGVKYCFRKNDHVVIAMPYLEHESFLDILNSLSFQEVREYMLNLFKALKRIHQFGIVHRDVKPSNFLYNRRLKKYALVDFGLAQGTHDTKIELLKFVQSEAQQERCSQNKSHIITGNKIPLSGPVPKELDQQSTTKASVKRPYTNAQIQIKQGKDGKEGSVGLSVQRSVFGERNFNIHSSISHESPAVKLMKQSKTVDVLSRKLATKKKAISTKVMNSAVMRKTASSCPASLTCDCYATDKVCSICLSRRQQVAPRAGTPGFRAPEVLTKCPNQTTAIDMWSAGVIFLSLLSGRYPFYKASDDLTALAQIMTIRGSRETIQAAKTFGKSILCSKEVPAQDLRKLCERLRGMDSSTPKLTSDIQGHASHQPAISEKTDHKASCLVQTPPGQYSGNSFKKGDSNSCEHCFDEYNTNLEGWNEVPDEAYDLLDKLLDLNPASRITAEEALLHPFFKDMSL
Sequence (Q9UBU7 whole entry partner): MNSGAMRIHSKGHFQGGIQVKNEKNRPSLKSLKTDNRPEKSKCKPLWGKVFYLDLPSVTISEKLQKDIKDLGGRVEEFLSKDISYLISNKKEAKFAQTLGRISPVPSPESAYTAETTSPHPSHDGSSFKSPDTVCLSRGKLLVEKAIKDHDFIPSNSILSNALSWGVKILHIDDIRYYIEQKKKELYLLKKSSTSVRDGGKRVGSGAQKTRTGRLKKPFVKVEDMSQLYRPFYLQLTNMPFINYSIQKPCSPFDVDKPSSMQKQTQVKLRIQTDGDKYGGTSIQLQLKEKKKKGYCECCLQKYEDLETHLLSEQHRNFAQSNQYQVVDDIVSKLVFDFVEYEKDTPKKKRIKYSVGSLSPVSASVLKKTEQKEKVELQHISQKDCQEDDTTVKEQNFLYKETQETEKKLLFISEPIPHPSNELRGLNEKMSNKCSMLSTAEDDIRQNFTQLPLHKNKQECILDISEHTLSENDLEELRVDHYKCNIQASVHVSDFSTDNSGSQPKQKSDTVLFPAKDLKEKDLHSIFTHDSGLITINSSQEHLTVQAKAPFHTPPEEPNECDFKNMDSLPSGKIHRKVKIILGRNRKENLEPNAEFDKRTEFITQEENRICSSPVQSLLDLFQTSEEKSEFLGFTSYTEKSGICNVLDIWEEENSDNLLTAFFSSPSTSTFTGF
experimental_endpoint: pIC50
Numbers only, as −log10 of the molar value.

Cc1ccc(-c2[nH]c(-c3ccnc4[nH]ccc34)cc2C(=O)NCCN(C)C)c(F)c1    6.13
NC(=O)c1cc(-c2ccnc3[nH]ccc23)[nH]c1-c1cccc(F)c1F    8.30
Cc1ccc(-c2[nH]c(-c3ccnc4[nH]ccc34)cc2C(N)=O)c(C(F)(F)F)c1    8.52
NC(=O)c1cc(-c2ccnc3[nH]ccc23)n(CCC(F)(F)F)c1-c1ccc(Cl)cc1Cl    6.00

Provide the reported pIC50 of each entry below, same order.
1. Cc1ccc(-c2[nH]c(-c3ccnc4[nH]ccc34)cc2C(=O)NCc2ccco2)c(F)c1
2. CCn1c(-c2ccnc3[nH]ccc23)cc(C(N)=O)c1-c1ccc(Cl)cc1Cl
3. NC(=O)c1cc(-c2ccnc3[nH]ccc23)[nH]c1-c1ccc(Cl)cc1Cl
4. NC(=O)c1cc(-c2[nH]c(-c3ccnc4[nH]ccc34)cc2C(N)=O)ccc1F
5. Cc1cc(F)ccc1-c1[nH]c(-c2ccnc3[nH]ccc23)cc1C(N)=O
6. Cc1ccc(-c2[nH]c(-c3ccnc4[nH]ccc34)cc2C(=O)N[C@H]2CCCC[C@H]2N)c(F)c1
7. NC(=O)c1cc(-c2c[nH]nc2C(F)(F)F)[nH]c1-c1ccc(Cl)cc1Cl

[7.21, 7.77, 9.00, 7.57, 8.70, 7.92, 6.73]

====

A short record of IC50 observed with Cdc7 (Homo sapiens) follows.
Numbers only, in nM.

Solved cases (2 shown):
COc1ccc(-c2[nH]c(-c3ccnc4[nH]ccc34)cc2C(N)=O)c(C(F)(F)F)c1    6
Cc1ccc(-c2[nH]c(-c3ccnc4[nH]ccc34)cc2C(N)=O)cc1[N+](=O)[O-]    34

Provide the reported IC50 of each entry below, same order.
1. Cc1ccc(-c2[nH]c(-c3ccnc4[nH]ccc34)cc2C(N)=O)c(Cl)c1
2. COc1cccc(-c2[nH]c(-c3ccnc4[nH]ccc34)cc2C(N)=O)c1F
3. NC(=O)c1cc(-c2cn[nH]c2)[nH]c1-c1ccc(Cl)cc1Cl
4. Cc1ccc(-c2[nH]c(-c3ccnc4[nH]ccc34)c(Br)c2C(N)=O)c(F)c1
5. NC(=O)c1cc(-c2ccnc3[nH]ccc23)[nH]c1-c1cccc(Cl)c1F
6. NC(=O)c1cc(-c2ccnc3[nH]ccc23)[nH]c1-c1ccc(OC(F)F)cc1Cl

1. 1
2. 4
3. 13
4. 159
5. 4
6. 1

====

molecular target: Cdc7 (Homo sapiens, UniProt O00311); assay: Cdc7 biochemical assay, ADPGlo assay format
pIC50: −log10 of the molar value.
Would you please tag the item fulfilled when its pIC50 is 8 or above, and not fulfilled when it is below?

Previously resolved entries follow.
Cc1ccc(-c2[nH]c(-c3ccnc4[nH]ccc34)cc2C(N)=O)c(F)c1F [comp 10]    fulfilled
NC(=O)c1cc(-c2ccnc3[nH]ccc23)[nH]c1-c1ccc(OC(F)(F)F)cc1 [comp 34]    not fulfilled
CCOc1cccc(-c2[nH]c(-c3ccnc4[nH]ccc34)cc2C(N)=O)c1F [comp 20]    fulfilled

Does the reported pIC50 for NC(=O)c1cc(-c2ccnc3[nH]ccc23)[nH]c1-c1ccc(Cl)cc1F [comp 2] fall at or above the 8 mark?
fulfilled

# repeat for NC(=O)c1cc(-c2ccnc3[nH]ccc23)[nH]c1-c1cccc2c1sc1ccccc12 [comp 31]
not fulfilled

# repeat for Cc1ccc(-c2[nH]c(-c3ccnc4[nH]ccc34)cc2C(=O)NCCF)c(F)c1 [comp 28]
not fulfilled

====

A short record of log10(IC50) observed with Cdc7 (Homo sapiens) follows.
Hello, just confirming the data are log10 of IC50 with units of nM.

Cc1ccc(-c2[nH]c(-c3ccnc4[nH]ccc34)cc2C(=O)NC2CCN(C)CC2)c(F)c1    3.50

Provide the reported log10(IC50) of each entry below, same order.
1. NC(=O)c1cc(-c2ccnc3[nH]ccc23)[nH]c1-c1ccc(Cl)c(Cl)c1
2. NC(=O)c1cc(-c2ccnc3[nH]ccc23)[nH]c1-c1ccc2c(c1)OCCO2
3. NC(=O)c1cc(-c2ccnc3[nH]ccc23)[nH]c1-c1ccc(C(F)(F)F)cc1Cl
4. NC(=O)c1cc(-c2ccnc3[nH]ccc23)[nH]c1-c1cccc(F)c1Cl
5. NC(=O)c1cc(-c2ccnc3[nH]ncc23)[nH]c1-c1ccc(Cl)cc1Cl

[1.49, 1.00, 0.00, 0.00, 0.60]
